# Assayed system: BT474 cells Her-2 receptor TK phosphorylation stimulated by Her-2 (Homo sapiens, UniProt P04626)
# Construct: against BT474 cells; endogenous in cells
# Sequence (P04626 23-1255): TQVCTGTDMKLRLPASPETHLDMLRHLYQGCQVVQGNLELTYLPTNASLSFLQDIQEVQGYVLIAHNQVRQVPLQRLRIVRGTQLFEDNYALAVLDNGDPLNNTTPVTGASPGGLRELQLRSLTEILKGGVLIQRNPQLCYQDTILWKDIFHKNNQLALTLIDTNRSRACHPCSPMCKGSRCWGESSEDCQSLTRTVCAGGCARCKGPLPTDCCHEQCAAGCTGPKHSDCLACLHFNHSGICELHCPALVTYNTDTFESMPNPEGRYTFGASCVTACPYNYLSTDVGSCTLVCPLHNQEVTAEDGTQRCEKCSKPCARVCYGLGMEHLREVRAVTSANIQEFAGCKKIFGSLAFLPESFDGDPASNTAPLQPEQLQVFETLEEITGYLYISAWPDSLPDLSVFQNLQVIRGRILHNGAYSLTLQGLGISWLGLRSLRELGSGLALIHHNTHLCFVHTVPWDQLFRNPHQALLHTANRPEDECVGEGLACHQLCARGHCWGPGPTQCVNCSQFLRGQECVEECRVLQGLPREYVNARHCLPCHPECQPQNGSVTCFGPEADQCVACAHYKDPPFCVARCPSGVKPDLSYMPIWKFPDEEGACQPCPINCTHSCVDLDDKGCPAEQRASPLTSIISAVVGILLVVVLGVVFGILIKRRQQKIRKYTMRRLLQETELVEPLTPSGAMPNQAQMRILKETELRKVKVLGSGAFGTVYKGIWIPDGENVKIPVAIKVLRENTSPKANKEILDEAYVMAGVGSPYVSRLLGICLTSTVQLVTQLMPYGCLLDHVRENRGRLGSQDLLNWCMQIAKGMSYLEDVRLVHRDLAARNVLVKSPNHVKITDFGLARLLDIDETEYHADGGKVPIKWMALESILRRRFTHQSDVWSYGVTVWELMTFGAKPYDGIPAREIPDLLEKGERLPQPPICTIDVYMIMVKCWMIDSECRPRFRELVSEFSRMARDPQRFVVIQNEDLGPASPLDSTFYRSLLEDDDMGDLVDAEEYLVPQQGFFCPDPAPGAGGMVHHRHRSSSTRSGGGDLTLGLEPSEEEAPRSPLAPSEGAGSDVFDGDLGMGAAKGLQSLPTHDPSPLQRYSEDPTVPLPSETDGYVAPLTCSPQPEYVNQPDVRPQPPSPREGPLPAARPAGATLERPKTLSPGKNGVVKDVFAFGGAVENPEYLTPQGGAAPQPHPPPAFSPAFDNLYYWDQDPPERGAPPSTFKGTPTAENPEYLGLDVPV
# Assay info: Inhibition of BT474 cells Her-2 receptor TK phosphorylation
Assay metric: EC50 (µM)
Lab book: enter the figure in µM, no units written.

# Given smiles, Experimental result
data = [
    ("COc1cc2ncnc(Nc3ccc(F)c(Cl)c3)c2cc1NC(=O)C=C1CCNCC1", 0.35),
    ("COCCN1CCC(=CC(=O)Nc2cc3c(Nc4ccc(F)c(Cl)c4)ncnc3cc2OC)CC1", 1.7),
]

Data point: `COc1cc2ncnc(Nc3ccc(OCc4ccccn4)c(Cl)c3)c2cc1NC(=O)C=C1CCNCC1` ; EC50 = 0.18

Data point: `CCOc1cc2ncc(C#N)c(Nc3ccc(F)c(Cl)c3)c2cc1NC(=O)C=C1CCNCC1` ; EC50 = 0.26

Data point: `COc1cc2ncnc(Nc3ccc(OCc4cccc(F)c4)c(Cl)c3)c2cc1NC(=O)C=C1CCNCC1` ; EC50 = 0.48

Data point: `COc1cc2ncnc(Nc3ccc(F)c(Cl)c3)c2cc1NC(=O)C=C1CCN(C)CC1` ; EC50 = 0.82

###

# Assayed system: A431 cells EGFR-TK phosphorylation stimulated by EGF (Homo sapiens)
# Construct: against A431 cells EGFR-TK; endogenous in cells; host or cells: A431 cells
# Sequence (P00533 25-1210): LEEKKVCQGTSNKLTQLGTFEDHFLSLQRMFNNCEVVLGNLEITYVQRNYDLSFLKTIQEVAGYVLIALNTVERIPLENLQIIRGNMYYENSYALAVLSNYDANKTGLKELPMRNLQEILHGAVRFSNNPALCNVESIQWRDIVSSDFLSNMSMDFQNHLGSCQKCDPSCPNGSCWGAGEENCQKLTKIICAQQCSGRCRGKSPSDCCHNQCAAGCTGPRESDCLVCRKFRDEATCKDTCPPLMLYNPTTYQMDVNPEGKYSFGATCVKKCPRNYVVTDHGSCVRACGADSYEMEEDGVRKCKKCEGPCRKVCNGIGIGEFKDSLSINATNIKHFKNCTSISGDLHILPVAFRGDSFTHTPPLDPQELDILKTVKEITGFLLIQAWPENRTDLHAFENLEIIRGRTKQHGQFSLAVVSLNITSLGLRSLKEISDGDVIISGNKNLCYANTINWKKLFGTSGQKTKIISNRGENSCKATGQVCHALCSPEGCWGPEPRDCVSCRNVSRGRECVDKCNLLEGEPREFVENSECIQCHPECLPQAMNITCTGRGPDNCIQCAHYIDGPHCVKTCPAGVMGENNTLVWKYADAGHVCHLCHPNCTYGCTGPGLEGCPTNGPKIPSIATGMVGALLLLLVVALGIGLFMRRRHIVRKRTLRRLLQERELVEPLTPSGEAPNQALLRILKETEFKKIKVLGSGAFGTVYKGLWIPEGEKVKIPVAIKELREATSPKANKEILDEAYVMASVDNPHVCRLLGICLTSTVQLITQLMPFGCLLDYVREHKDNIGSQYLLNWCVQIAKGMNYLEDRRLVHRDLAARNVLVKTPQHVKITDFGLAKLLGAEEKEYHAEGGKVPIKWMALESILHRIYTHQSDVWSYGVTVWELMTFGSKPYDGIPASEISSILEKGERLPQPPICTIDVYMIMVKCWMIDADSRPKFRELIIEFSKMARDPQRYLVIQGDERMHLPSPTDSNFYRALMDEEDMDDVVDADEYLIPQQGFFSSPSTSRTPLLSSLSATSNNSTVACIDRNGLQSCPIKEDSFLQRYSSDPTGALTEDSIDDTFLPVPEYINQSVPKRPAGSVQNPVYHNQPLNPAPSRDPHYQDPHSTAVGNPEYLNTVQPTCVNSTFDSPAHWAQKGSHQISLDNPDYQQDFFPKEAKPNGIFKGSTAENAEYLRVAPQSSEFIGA
# Assay info: Inhibition of cellular EGFR-TK phosphorylation stimulated by EGF in A431 cells
# Format: cell-based
# Test settings: A431 cells EGFR-TK phosphorylation stimulated by EGF (Table 4)
Assay metric: pEC50
The meaning of pEC50 here: minus log10 of the concentration in molar units.

# Given smiles, Assay metric, Experimental result
records = [
    ("COc1cc2ncnc(Nc3ccc(Oc4ccccc4)c(OC)c3)c2cc1NC(=O)C=C1CCNCC1", "pEC50", 6.05),
    ("COCCOc1cc2ncc(C#N)c(Nc3ccc(OCc4cccc(F)c4)c(Cl)c3)c2cc1N", "pEC50", 6.55),
    ("O=C(C=C1CCNCC1)Nc1ccc2ncnc(Nc3cccc(Cl)c3)c2c1", "pEC50", 6.01),
    ("C[C@H](Nc1ncnc2ccc(NC(=O)C=C3CCNCC3)cc12)c1ccccc1", "pEC50", 6.12),
    ("O=C(C=C1CCNCC1)Nc1ccc2ncnc(Nc3cccc(Br)c3)c2c1", "pEC50", 7.42),
]

Here is the next item to consider.
A431 cells EGFR-TK phosphorylation stimulated by EGF (Homo sapiens) pEC50 of `O=C(C=C1CCNCC1)Nc1ccc2ncnc(Nc3ccc(F)c(Cl)c3)c2c1` is 7.05

###

Catalogue of pEC50 readings, one per entry.
# Tested on: A431 cells
# Assay info: Cell growth inhibition assay (MTS assay), A431
# Assay type: cell-based
# Test settings: Homo sapiens, A-431; A431 cells; MTS, 48 hours; read-out: Growth inhibition activity EC50
The meaning of pEC50 here: minus log10 of the concentration in molar units.

# Molecule, Assayed system, pEC50
measured = [
    ("CCOc1cc2ncc(C#N)c(Nc3ccc(OCc4ccccn4)c(Cl)c3)c2cc1NC(=O)C=C1CCNCC1 [Example 143]", "A431 cells", 6.60),
    ("C#Cc1cccc(Nc2ncnc3cc(OC)c(NC(=O)C=C4CCNCC4)cc23)c1 [Example 42]", "A431 cells", 6.92),
    ("O=C(C=C1CCNCC1)Nc1ccc2ncnc(Nc3ccc(F)c(Cl)c3)c2c1 [Example 32]", "A431 cells", 6.22),
]

Data point: C#Cc1cccc(Nc2ncnc3ccc(NC(=O)C=C4CCNCC4)cc23)c1 [Example 3] ; pEC50 = 5.70

Data point: C[C@H](Nc1ncnc2ccc(NC(=O)C=C3CCNCC3)cc12)c1ccccc1 [Example 34] ; pEC50 = 4.89

###

# System: BT474 cells
# Assay info: BT-474 cell growth inhibition assay (SRB assay)
# Format: cell-based
# Test settings: Homo sapiens, concentration of 3 μM, 72 h, read-out: Inhibition Percent (%)
Catalogue of inhibition at 3 µM readings, one per entry.
Lab book: enter the figure in %, no units written.

Examples from the recorded data:
# Given smiles, inhibition at 3 µM (%)
rows = [
    ("CCOc1cc2ncc(C#N)c(Nc3ccc(F)c(Cl)c3)c2cc1NC(=O)C=C1CCN(C)CC1", 60),
    ("COc1cc2ncc(C#N)c(Nc3ccc(OCc4ccccn4)c(Cl)c3)c2cc1NC(=O)C=C1CCN(C)CC1", 82),
    ("CCOc1cc2ncc(C#N)c(Nc3ccc(OCc4ccccn4)c(Cl)c3)c2cc1NC(=O)C=C1CCNCC1", 55),
    ("COCCOc1cc2ncc(C#N)c(Nc3ccc(F)c(Cl)c3)c2cc1NC(=O)C=C1CCNCC1", 53),
    ("COc1cc2ncc(C#N)c(Nc3ccc(Oc4cccc(F)c4)c(Cl)c3)c2cc1NC(=O)C=C1CCNCC1", 85),
]

Data point: `N#Cc1cnc2ccc(NC(=O)C=C3CCNCC3)cc2c1Nc1ccc(F)c(Cl)c1` ; inhibition at 3 µM = 44

Data point: `COc1cc2ncc(C#N)c(Nc3cccc(Br)c3)c2cc1NC(=O)C=C1CCNCC1` ; inhibition at 3 µM = 58

###

# Tested on: A431 cells
# Assay info: Cell growth inhibition assay (MTS assay), A431
# Type: cell-based
# Test settings: Homo sapiens, A-431; A431 cells; MTS, 48 hours; read-out: Growth inhibition activity EC50
Catalogue of EC50 readings, one per entry.
Lab book: enter the figure in nM, no units written.

Examples from the recorded data:
# Compound, EC50, nM
records = [
    ("O=C(C=C1CCNCC1)Nc1ccc2ncnc(Nc3cccc(Br)c3)c2c1 [Example 33]", 100),
    ("C#Cc1cccc(Nc2ncnc3cc(OC)c(NC(=O)C=C4CCN(C)CC4)cc23)c1 [Example 51]", 120),
    ("C#Cc1cccc(Nc2ncnc3cc(OCCCOC)c(NC(=O)C=C4CCNCC4)cc23)c1 [Example 50]", 150),
]

Data point: O=C(C=C1CCNCC1)Nc1ccc2ncnc(Nc3ccc4[nH]ccc4c3)c2c1 [Example 41] ; EC50 = 1500

###

# Assayed system: A431 cells EGFR-TK phosphorylation stimulated by EGF (Homo sapiens)
# Construct: against A431 cells EGFR-TK; endogenous in cells; host or cells: A431 cells
# Assay info: Inhibition of cellular EGFR-TK phosphorylation stimulated by EGF in A431 cells
# Assay type: cell-based
# Test settings: A431 cells EGFR-TK phosphorylation stimulated by EGF (Table 4)
Assay metric: EC50 (nM)
Lab book: enter the figure in nM, no units written.

# Compound, Assay metric, Experimental result
data = [
    ("COCCOc1cc2ncnc(Nc3cccc(Br)c3)c2cc1NC(=O)C=C1CCN(C)CC1 [Example 65]", "EC50", 230),
    ("C#Cc1cccc(Nc2ncnc3ccc(NC(=O)C=C4CCN(C)CC4)cc23)c1 [Example 4]", "EC50", 580),
    ("C#Cc1cccc(Nc2ncnc3ccc(NC(=O)C=C4CCNCC4)cc23)c1 [Example 3]", "EC50", 150),
]

Here is the next item to consider.
A431 cells EGFR-TK phosphorylation stimulated by EGF (Homo sapiens) EC50 of C#Cc1cccc(Nc2ncnc3ccc(NC(=O)C=C4CCN(CCOC)CC4)cc23)c1 [Example 7] is 400

###

Catalogue of EC50 readings, one per entry.
# Test system: A431 cells
# Assay info: Cell growth inhibition assay (MTS assay), A431
# Assay type: cell-based
# Test settings: Homo sapiens, A-431; A431 cells; MTS, 48 hours; read-out: Growth inhibition activity EC50
Put your answer as a value accompanied by its unit after it.

# Given smiles, Assay metric, Experimental result
records = [
    ("N#Cc1cnc2ccc(N)cc2c1Nc1cccc(Br)c1", "EC50", "0.9 µM"),
]

Data point: `CCOc1cc2ncc(C#N)c(Nc3cccc(Br)c3)c2cc1NC(=O)C=C1CCNCC1` ; EC50 = 0.11 µM

Data point: `O=C(C=C1CCNCC1)Nc1ccc2ncnc(Nc3cccc(Cl)c3)c2c1` ; EC50 = 30 µM

###

# Test system: BT474 cells
# Assay info: BT-474 cell growth inhibition assay (SRB assay)
# Format: cell-based
# Test settings: Homo sapiens, concentration of 3 μM, 72 h, read-out: Inhibition Percent (%)
# if value of inhibition at 3 µM reaches 80%, tag 1; if it stays below, tag -1

# Given smiles, Assigned label
measured = [
    ("N#Cc1cnc2ccc(NC(=O)C=C3CCNCC3)cc2c1Nc1ccc(OCc2cccc(F)c2)c(Cl)c1", 1),
    ("C#Cc1cccc(Nc2c(C#N)cnc3ccc(NC(=O)C=C4CCNCC4)cc23)c1", -1),
    ("C#Cc1cccc(Nc2c(C#N)cnc3cc(OCCOC)c(NC(=O)C=C4CCNCC4)cc23)c1", -1),
]

Query :: API: above_or_equal(metric=inhibition at 3 µM, cutoff=80%) for item `CCCN1CCC(=CC(=O)Nc2cc3c(Nc4ccc(OCc5ccccn5)c(Cl)c4)c(C#N)cnc3cc2OCCOC)CC1`
Result :: 1

Query :: API: above_or_equal(metric=inhibition at 3 µM, cutoff=80%) for item `COCCOc1cc2ncc(C#N)c(Nc3ccc(OCc4ccccn4)c(Cl)c3)c2cc1NC(=O)C=C1CCN(C)CC1`
Result :: 1

Query :: API: above_or_equal(metric=inhibition at 3 µM, cutoff=80%) for item `N#Cc1cnc2ccc(NC(=O)C=C3CCNCC3)cc2c1Nc1cccc(Br)c1`
Result :: -1
